Target under test: T1R1/T1R3 receptor (Felis catus)
Assay protocol: Example 8: PAM screening of transmembrane compounds with GMP and Ala on T1R1/T1R3 in HEK293 cells
Assay type: cell-based, cat
Settings: compound at 0.01, 0.1 and 1 mM in combination with GMP+Ala mixtures (T1-T4); PAM if response greater than sum of compound alone and GMP+Ala alone
Experimental: HEK293 cells that stably express T1R3 and inducibly express T1R1 were exposed to transmembrane compound alone or in combination with Ala and GMP to activate the umami receptor. Activation of the T1R1/T1R3 receptor was detected by a change in intracellular calcium levels using a calcium sensitive fluorescent dye and/or a luminescent reporter system. […] Activation of the umami receptor was also determined in the presence of 1 mM GMP+100 mM Ala to generate a “maximum” umami receptor activation level.
Measured parameter: T1R1/T1R3 PAM

Examples with answers:
Compound	T1R1/T1R3 PAM
O=C(CN1C(=O)C(=O)N(Cc2ccccc2)C1=O)c1ccc2c(c1)CCC2	No
O=C(CN1C(=O)C(=O)N(CCc2cccs2)C1=O)c1ccc2c(c1)OCO2	No
Cl.N[C@@H](Cc1ccccc1)C(=O)OCc1ccccc1	Yes
COC(=O)C(NCc1ccccc1)c1ccccc1 (stereo not drawn) [Formula 19, Methyl-2-benzylamino-2-phenylacetate]	Yes
COC(=O)[C@H](CC(C)C)NCc1ccccc1.Cl	Yes

QUERY: Param request: T1R1/T1R3 PAM | system T1R1/T1R3 receptor (Felis catus) | item `O=C(CN1C(=O)C(=O)N(Cc2ccccc2)C1=O)c1ccccc1`
RESULT: No

QUERY: Param request: T1R1/T1R3 PAM | system T1R1/T1R3 receptor (Felis catus) | item `COc1ccc(C(=O)CN2C(=O)C(=O)N(Cc3ccccc3)C2=O)c(OC)c1`
RESULT: No

QUERY: Param request: T1R1/T1R3 PAM | system T1R1/T1R3 receptor (Felis catus) | item `O=C(CN1C(=O)C(=O)N(Cc2ccccc2)C1=O)c1ccc2c(c1)OCCO2`
RESULT: No

QUERY: Param request: T1R1/T1R3 PAM | system T1R1/T1R3 receptor (Felis catus) | item `CCCC(CCC)NC(=O)c1ccc2c(c1)OCO2`
RESULT: Yes

====

Target under test: T1R1/T1R3 receptor (Felis catus)
Assay protocol: cell-based
Settings: EC50 (mM), +Alanine (20 mM) + IMP (0.2 mM)
Measured parameter: EC50

QUERY: Retrieve EC50 measured for `O=C1CC(=O)N(Cc2ccccc2)C(=O)N1Cc1ccccc1` and print it.
RESULT: > 0.3 mM

====

Target under test: T1R1/T1R3 receptor (Felis catus)
Assay protocol: cell-based
Format: cell-based
Settings: EC50 (effect with 0.2 mM IMP), positive controls measured with 0.2 mM IMP
pEC50: −log10 of the molar value.
Criterion: pEC50 meeting or surpassing 2. Met: label 1. Not met: label 0.

QUERY: Kindly determine if pEC50 recorded for `N[C@@H](Cc1c[nH]c2ccccc12)C(=O)O` is above or exactly 2.
RESULT: label 1

====

Target under test: T1R1/T1R3 receptor (Felis catus)
Assay protocol: cell-based
Settings: read-out: EC50 (mM), +Alanine (20 mM) + IMP (0.2 mM)
Measured parameter: EC50

QUERY: Param request: EC50 | system T1R1/T1R3 receptor (Felis catus) | item `O=P(O)(O)OP(=O)(O)OP(=O)(O)OC[C@H]1O[C@@H](n2cnc3c(Cl)ncnc32)[C@H](O)[C@@H]1O`
RESULT: > 0.3 mM
